The reported numbers originate from ChEMBL document CHEMBL1955833.

Assay: Half life in phosphate buffer pH 7.4 at 10 uM by HPLC analysis
Format: physicochemical
Measured parameter: half-life at 10 µM (h)
Express your answer in h, writing the number without its unit.

INPUT: # input compound: O=C(Nc1ccc(N2C(=O)[C@@H]3[C@@H]4CC[C@@H](C4)[C@@H]3C2=O)cc1)c1cccc2cccnc12 ; wanted: its half-life at 10 µM
OUTPUT: 3.8

###

Test system: H9
Assay: Cardiogenic activity in human H9 cells after 14 days by MYH6-mCherry reporter gene assay relative to 4-[(1R,2S,6R,7S)-3,5-dioxo-4-azatricyclo[5.2.1.0~2,6~]dec-8-en-4-yl]-N-quinolin-8-ylbenzamide
Type: functional
Measured parameter: Activity

Recorded Activity, per entry:
{"Structure smiles string": "O=C1[C@@H]2[C@@H]3CC[C@@H](C3)[C@@H]2C(=O)N1[C@H]1CC[C@H](C(=O)Nc2cccc3ccncc23)CC1", "Study system": "H9", "Result": "Dose-dependent effect"}
{"Structure smiles string": "O=C(Nc1cccc2cccnc12)c1ccc(N2C(=O)[C@@H]3[C@@H]4CC[C@@H](C4)[C@@H]3C2=O)cc1", "Study system": "H9", "Result": "Dose-dependent effect"}
{"Structure smiles string": "O=C(Nc1cccc2cccnc12)c1ccc(N2C(=O)[C@@H]3[C@H](C2=O)[C@@H]2C=C[C@H]3C2)cc1", "Study system": "H9", "Result": "Dose-dependent effect"}
{"Structure smiles string": "O=C(Nc1cccc2ccccc12)c1ccc(N2C(=O)[C@@H]3[C@@H]4CC[C@@H](C4)[C@@H]3C2=O)cc1", "Study system": "H9", "Result": "8%"}
{"Structure smiles string": "O=C1[C@@H]2[C@@H]3CC[C@@H](C3)[C@@H]2C(=O)N1[C@H]1CC[C@H](C(=O)Nc2ccncc2)CC1", "Study system": "H9", "Result": "3%"}
{"Structure smiles string": "O=C(Nc1ccc(N2C(=O)[C@@H]3[C@@H]4CC[C@@H](C4)[C@@H]3C2=O)cc1)c1cccc2cccnc12", "Study system": "H9", "Result": "1%"}

With those in mind, consider the next compound.
INPUT: # input compound: O=C1[C@@H]2[C@@H]3CC[C@@H](C3)[C@@H]2C(=O)N1[C@H]1CC[C@H](C(=O)Nc2cccnc2)CC1 ; wanted: its Activity
OUTPUT: 15%

###

Test: Inhibition of beta-catenin-dependent canonical Wnt3A pathway in human HEK293T cells at 1 uM by luciferase reporter gene assay
Assay type: cell-based
Settings: HEK-293T
Please enter fulfilled where inhibition is greater than or equal to 80%, and not fulfilled where it is lower.

INPUT: Would you say CN(C)c1ccc(NC(=O)c2ccc(N3C(=O)[C@@H]4[C@@H]5CC[C@@H](C5)[C@@H]4C3=O)cc2)cc1 shows inhibition at minimum 80%?
OUTPUT: not fulfilled

INPUT: Would you say O=C(Nc1cccc2cccnc12)c1ccc(N2C(=O)[C@@H]3[C@@H]4CC[C@@H](C4)[C@@H]3C2=O)o1 shows inhibition at minimum 80%?
OUTPUT: not fulfilled

INPUT: Would you say O=C(Nc1cccc2cccnc12)c1ccc(N2C(=O)[C@@H]3[C@H]4CC[C@H](CC4)[C@@H]3C2=O)cc1 shows inhibition at minimum 80%?
OUTPUT: fulfilled

INPUT: Would you say O=C1c2ccccc2-c2cccc(NC(=O)[C@H]3CC[C@H](N4C(=O)[C@@H]5[C@@H]6CC[C@@H](C6)[C@@H]5C4=O)CC3)c21 shows inhibition at minimum 80%?
OUTPUT: fulfilled

INPUT: Would you say O=C1[C@@H]2[C@@H]3CC[C@@H](C3)[C@@H]2C(=O)N1[C@H]1CC[C@H](C(=O)Nc2ccnc3ccccc23)CC1 shows inhibition at minimum 80%?
OUTPUT: fulfilled
